Target: P2Y purinoceptor 12 (Homo sapiens, UniProt Q9H244)
Sequence (Q9H244 whole entry): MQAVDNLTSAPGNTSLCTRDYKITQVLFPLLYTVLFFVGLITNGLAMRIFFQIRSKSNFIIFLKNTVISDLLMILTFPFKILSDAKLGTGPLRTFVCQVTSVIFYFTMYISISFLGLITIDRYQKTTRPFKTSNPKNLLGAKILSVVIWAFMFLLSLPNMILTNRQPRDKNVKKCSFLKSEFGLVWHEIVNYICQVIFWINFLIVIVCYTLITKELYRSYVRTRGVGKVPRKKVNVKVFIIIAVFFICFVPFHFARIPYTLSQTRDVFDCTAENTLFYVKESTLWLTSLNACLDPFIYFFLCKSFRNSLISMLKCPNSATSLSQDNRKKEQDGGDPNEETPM
Experiment: Binding affinity at human recombinant P2Y12 receptor expressed in CHO cells by radioligand binding assay
Listing of recorded Ki by entry.
Provide the reading as a plain figure in nM.

Completed entries (count: 3):
Asked: Which measured Ki value corresponds to CCCCCOC(=O)N1CCN(C(=O)[C@H](CCC(=O)O)NC(=O)c2cc(N3CCC(CCOC)CC3)nc(-c3ccccc3)n2)CC1 ?
Given back: 10.2

Asked: Which Ki reading was recorded for the compound CCCCCOC(=O)N1CCN(C(=O)[C@H](CCC(=O)O)NC(=O)c2nc(NCCOC)cc(-c3ccccc3)n2)CC1 ?
Given back: 5.2

Asked: For the compound CCCCCOC(=O)N1CCN(C(=O)[C@H](CCC(=O)O)NC(=O)c2cc(SC(C)(C)C)nc(-c3ccccc3)n2)CC1 , what Ki is on record?
Given back: 42

Further cases:
Asked: What does the record list as Ki for CCCCCOC(=O)N1CCN(C(=O)[C@H](CCC(=O)O)NC(=O)c2nc(-c3ccccc3)cc(N3CCN(C)CC3)n2)CC1 ?
Given back: 11

Asked: Look up Ki for this compound: CCCCCOC(=O)N1CCN(C(=O)[C@H](CCC(=O)O)NC(=O)c2nc(-c3ccccc3)cc(N3CCC(CCN4CCCC4)CC3)n2)CC1
Given back: 4.2

Asked: Entry CCCCCOC(=O)N1CCN(C(=O)[C@H](CCC(=O)O)NC(=O)c2cc(N3CCC(CNCC)CC3)nc(-c3ccccc3)n2)CC1 has what Ki?
Given back: 2.2
